Measured values drawn from ChEMBL document CHEMBL4610034 for this set.

# Tested target: Amine oxidase [flavin-containing] B (Rattus norvegicus)
# Sequence (P19643 whole entry): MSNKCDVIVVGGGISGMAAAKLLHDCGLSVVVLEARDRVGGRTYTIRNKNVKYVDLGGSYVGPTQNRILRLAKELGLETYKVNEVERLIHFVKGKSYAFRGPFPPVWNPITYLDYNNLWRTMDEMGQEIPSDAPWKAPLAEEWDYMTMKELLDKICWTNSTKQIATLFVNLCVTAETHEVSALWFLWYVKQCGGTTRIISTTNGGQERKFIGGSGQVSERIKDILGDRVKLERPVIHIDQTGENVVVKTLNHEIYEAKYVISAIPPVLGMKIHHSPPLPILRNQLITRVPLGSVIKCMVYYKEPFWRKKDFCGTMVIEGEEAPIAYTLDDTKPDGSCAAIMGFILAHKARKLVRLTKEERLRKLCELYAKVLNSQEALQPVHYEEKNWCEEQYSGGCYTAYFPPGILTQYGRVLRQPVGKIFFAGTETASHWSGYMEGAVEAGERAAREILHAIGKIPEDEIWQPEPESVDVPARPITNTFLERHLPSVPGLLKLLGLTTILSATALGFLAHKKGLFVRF
pIC50: −log10 of the molar value.
Class membership depends on pIC50 alone; the intervals are low class (below 4), middle class (4 to below 5), high class (5 or more)

Solved entries:
# Compound, Tested target, Cat
rows = [
    ("COc1ccc(C2CC(=O)Oc3c(O)cc(O)cc32)cc1 (stereo not given)", "Amine oxidase [flavin-containing] B (Rattus norvegicus)", "middle class"),
    ("COc1cc(C2CC(=O)Oc3c2ccc(O)c3O)ccc1O (stereo not given)", "Amine oxidase [flavin-containing] B (Rattus norvegicus)", "high class"),
    ("COc1ccc(-c2cc(=O)oc3c(O)c(O)ccc23)cc1OC", "Amine oxidase [flavin-containing] B (Rattus norvegicus)", "low class"),
    ("COc1ccc(C2CC(=O)Oc3cc(O)cc(O)c32)cc1OC (stereo not given)", "Amine oxidase [flavin-containing] B (Rattus norvegicus)", "low class"),
    ("COc1ccc(C2CC(=O)Oc3ccc(O)cc32)cc1OC (stereo not given)", "Amine oxidase [flavin-containing] B (Rattus norvegicus)", "low class"),
    ("COc1ccc(C2CC(=O)Oc3c(O)cc(O)cc32)cc1OC (stereo not given)", "Amine oxidase [flavin-containing] B (Rattus norvegicus)", "middle class"),
]

Category of `COc1cc(-c2cc(=O)oc3c(O)c(O)ccc23)cc(OC)c1OC` , please.
low class

Field entry: `O=c1cc(-c2ccc(O)c(O)c2)c2cc(O)cc(O)c2o1`
middle class

Field entry: O=C1CC(c2ccc(O)c(O)c2)c2ccc(O)c(O)c2O1 (stereo not given)
high class

Field entry: COc1cc(C2CC(=O)Oc3cc(O)cc(O)c32)ccc1O (stereo not given)
middle class

Field entry: O=C1CC(c2ccc(O)cc2)c2c(O)cc(O)cc2O1 (stereo not given)
middle class

Field entry: COc1ccc(C2CC(=O)Oc3c2ccc(O)c3O)cc1 (stereo not given)
high class

Field entry: `O=c1cc(-c2ccc(O)cc2)c2ccc(O)c(O)c2o1`
low class

Field entry: `O=c1cc(-c2ccc(O)c(O)c2)c2ccc(O)cc2o1`
low class

* * *

# Tested target: UniProt O42275
# Sequence (O42275 whole entry): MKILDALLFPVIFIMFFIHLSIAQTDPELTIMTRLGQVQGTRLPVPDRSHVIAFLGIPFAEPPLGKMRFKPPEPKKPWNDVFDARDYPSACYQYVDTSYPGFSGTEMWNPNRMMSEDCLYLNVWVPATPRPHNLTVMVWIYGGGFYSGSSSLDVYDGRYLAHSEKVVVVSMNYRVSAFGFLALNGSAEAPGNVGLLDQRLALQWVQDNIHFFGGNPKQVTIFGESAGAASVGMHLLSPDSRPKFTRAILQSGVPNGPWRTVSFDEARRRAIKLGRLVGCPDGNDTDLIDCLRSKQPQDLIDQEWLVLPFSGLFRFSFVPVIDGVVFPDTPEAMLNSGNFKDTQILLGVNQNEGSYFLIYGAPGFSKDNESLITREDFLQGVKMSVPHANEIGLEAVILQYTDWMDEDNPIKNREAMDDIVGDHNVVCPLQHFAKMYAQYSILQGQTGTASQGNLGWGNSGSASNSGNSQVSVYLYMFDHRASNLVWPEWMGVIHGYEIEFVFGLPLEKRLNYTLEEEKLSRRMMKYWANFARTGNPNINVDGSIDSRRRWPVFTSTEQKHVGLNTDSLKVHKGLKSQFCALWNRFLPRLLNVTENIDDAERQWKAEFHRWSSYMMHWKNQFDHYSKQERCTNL
I'd appreciate it if you marked entries Condition met when IC50 is lower than 10 µM and Condition not met when it is not.

Solved entries:
# Compound, Cat
data = [
    ("COc1ccc(C2CC(=O)Oc3cc(O)cc(O)c32)cc1OC (stereo not drawn)", "Condition not met"),
    ("O=c1cc(-c2cc(O)c(O)c(O)c2)c2ccc(O)c(O)c2o1", "Condition met"),
    ("COc1ccc(C2CC(=O)Oc3c(O)cc(O)cc32)cc1OC (stereo not drawn)", "Condition not met"),
    ("COc1ccc(-c2cc(=O)oc3cc(O)cc(O)c23)cc1OC", "Condition met"),
    ("O=c1cc(-c2ccc(O)c(O)c2)c2ccc(O)c(O)c2o1", "Condition met"),
    ("COc1cc(C2CC(=O)Oc3c2ccc(O)c3O)ccc1O (stereo not drawn)", "Condition not met"),
]

Could you please tell me whether IC50 recorded for COc1ccc(C2CC(=O)Oc3c2ccc(O)c3O)cc1 (stereo not drawn) is less than 10 µM?
Condition not met

Field entry: COc1ccc(C2CC(=O)Oc3cc(O)cc(O)c32)cc1 (stereo not drawn)
Condition not met

* * *

# Assay info: Antioxidant activity assessed as reduction of colourless Fe3+-TPTZ complex to coloured Fe2+-TPTZ complex measured after 5 mins by FRAP assay
# Assay type: functional
Measurement type: Activity (mmol/g)
Number only, in mmol/g; omit the unit.

# Molecule, Assay result
records = [
    ("COc1cc(C2CC(=O)Oc3cc(O)cc(O)c32)ccc1O (configuration not stated)", 9.01),
    ("COc1ccc(C2CC(=O)Oc3cc(O)ccc32)cc1 (configuration not stated)", 0.896),
    ("COc1cc(-c2cc(=O)oc3c(O)c(O)ccc23)cc(OC)c1OC", 9.65),
    ("O=c1cc(-c2ccc(O)cc2)c2ccc(O)c(O)c2o1", 9.89),
    ("O=c1cc(-c2ccc(O)c(O)c2)c2ccc(O)cc2o1", 9.71),
    ("COc1ccc(C2CC(=O)Oc3cc(O)cc(O)c32)cc1 (configuration not stated)", 1.06),
    ("O=C1CC(c2ccc(O)cc2)c2c(O)cc(O)cc2O1 (configuration not stated)", 2.26),
    ("COc1ccc(C2CC(=O)Oc3cc(O)cc(O)c32)cc1OC (configuration not stated)", 1.5),
    ("O=c1cc(-c2ccc(O)c(O)c2)c2cc(O)cc(O)c2o1", 10.5),
    ("O=c1cc(-c2ccc(O)c(O)c2)c2ccc(O)c(O)c2o1", 10.5),
]

Return reported Activity; argument: COc1ccc(C2CC(=O)Oc3c2ccc(O)c3O)cc1 (configuration not stated)
9.17

Field entry: O=C1CC(c2ccc(O)c(O)c2)c2ccc(O)c(O)c2O1 (configuration not stated)
9.6

* * *

# Assay info: Antioxidant activity assessed as reduction of colourless Fe3+-TPTZ complex to coloured Fe2+-TPTZ complex measured after 5 mins by FRAP assay
# Assay type: functional
Measurement type: Activity (mmol/g)
Number only, in mmol/g; omit the unit.

As a guide, the following entries are already answered.
# Compound, Activity, mmol/g
data = [
    ("COc1ccc(C2CC(=O)Oc3c(O)cc(O)cc32)cc1 (centres undefined)", 2.85),
    ("O=C1O[C@H]([C@@H](O)CO)C(O)=C1O", 9.87),
    ("COc1cc(C2CC(=O)Oc3c2ccc(O)c3O)ccc1O (centres undefined)", 10.1),
]

Return reported Activity; argument: COc1ccc(C2CC(=O)Oc3ccc(O)cc32)cc1OC (centres undefined)
0.922

Field entry: COc1ccc(C2CC(=O)Oc3c(O)cc(O)cc32)cc1OC (centres undefined)
4.76

Field entry: `COc1ccc(-c2cc(=O)oc3cc(O)cc(O)c23)cc1OC`
1.37

* * *

# Tested target: UniProt:P19643
# Assay info: Inhibition of MAO-B in Wistar rat liver using 4-trifluoromethyl benzylamine as substrate preincubated for 20 mins followed by substrate addition measured after 90 mins by microplate reader assay
# Format: tissue-based
Measurement type: IC50 (µM)
Number only, in µM; omit the unit.

As a guide, the following entries are already answered.
# Compound, IC50 (µM)
measured = [
    ("COc1ccc(C2CC(=O)Oc3cc(O)cc(O)c32)cc1 (stereo unspecified)", 83.7),
    ("COc1ccc(-c2cc(=O)oc3cc(O)cc(O)c23)cc1OC", 104),
    ("COc1cc(C2CC(=O)Oc3cc(O)ccc32)ccc1O (stereo unspecified)", 82.5),
    ("O=c1cc(-c2cc(O)c(O)c(O)c2)c2ccc(O)c(O)c2o1", 1.99),
]

Proceed to the following item.
Return reported IC50; argument: `O=c1cc(-c2ccc(O)c(O)c2)c2ccc(O)c(O)c2o1`
189

* * *

Collected Activity values appear next to each entry.
# Assay info: Antioxidant activity assessed as reduction of colourless Fe3+-TPTZ complex to coloured Fe2+-TPTZ complex measured after 5 mins by FRAP assay
# Type: functional
A bare number is not enough; add the unit after it.

Return reported Activity; argument: `COc1ccc(-c2cc(=O)oc3c(O)c(O)ccc23)cc1OC`
9.89 mmol/g

Field entry: `O=c1cc(-c2cc(O)c(O)c(O)c2)c2ccc(O)c(O)c2o1`
10.1 mmol/g

Field entry: COc1cc(C2CC(=O)Oc3cc(O)ccc32)ccc1O (stereo not drawn)
9.38 mmol/g
